molecular target: HLA-A*26:02; assay: IEDB peptide-MHC binding, purified MHC/competitive/fluorescence; filed as Kd, often an IC50 or EC50 that approximates it; bounds were set here for any values at or beyond the usual limits of such assays; conditions: source organism: Francisella tularensis subsp. tularensis FSC198
quantity: Kd

Supply reported Kd belonging to this sequence: `KRINSLIKY`
≥ 20 µM

====

target: HLA-A*02:01; experiment: IEDB peptide-MHC binding, purified MHC/direct/fluorescence; filed as Kd, often an IC50 or EC50 that approximates it; bounds were set here for any values at or beyond the usual limits of such assays; settings: source organism: H9N2 subtype Influenza A virus (A/swine/Korea/S83/2004(H9N2))
pKd: −log10 of the molar value.
quantity: pKd

Look up and state reported pKd for `FQKDAKVLF`
≤ 4.70

====

target: HLA-B*15:01; experiment: IEDB peptide-MHC binding, purified MHC/competitive/fluorescence; filed as Kd, often an IC50 or EC50 that approximates it; bounds were set here for any values at or beyond the usual limits of such assays; settings: source organism: Zaire ebolavirus
pKd: −log10 of the molar value.
quantity: pKd

# count of solved cases: 2
DRLASTVIY ... ≤ 4.70
AENCYNLEI ... ≤ 4.70

Next item in the queue.
Look up and report measured pKd (HLA-B*15:01) for the following sequence: `GIVSSMHYK`
≤ 4.70

====

target: HLA-A*01:01; experiment: IEDB peptide-MHC binding, purified MHC/competitive/fluorescence; filed as Kd, often an IC50 or EC50 that approximates it; bounds were set here for any values at or beyond the usual limits of such assays; conditions: source organism: Escherichia coli B171
quantity: pKd
Kindly note that pKd refers to -log10 of the concentration in mol/L and answer with the value alone.

Indicate its recorded pKd; the sequence in question is `VSALRLFNY`
6.10

====

biological target: HLA-B*35:01; assay: IEDB peptide-MHC binding, purified MHC/direct/fluorescence; filed as Kd, often an IC50 or EC50 that approximates it; bounds were set here for any values at or beyond the usual limits of such assays; conditions: source organism: Vibrio parahaemolyticus
quantity: pKd
Reminder that pKd is minus the log10 of a molar concentration.

NSDPEFNVL ... 6.68

Proceed to the following item.
For `VMETENALF` , write its pKd.
6.37

====

biological target: HLA-B*57:01; experiment: IEDB peptide-MHC binding, purified MHC/direct/fluorescence; filed as Kd, often an IC50 or EC50 that approximates it; bounds were set here for any values at or beyond the usual limits of such assays; settings: source organism: Francisella tularensis subsp. holarctica LVS
quantity: Kd (nM)
Give a bare numeral; the unit nM is implied.

Answer with reported Kd of `YGIAAHWSY`
258

====

Items are presented alongside their recorded Kd.
biological target: HLA-A*02:01; experiment: IEDB peptide-MHC binding, purified MHC/direct/fluorescence; filed as Kd, often an IC50 or EC50 that approximates it; bounds were set here for any values at or beyond the usual limits of such assays; conditions: source organism: Vibrio parahaemolyticus

VMETENALF ... ≥ 20 µM

For the sequence `NSDPEFNVL` , give its measured Kd value.
≥ 20 µM

====

target: HLA-B*15:17; test: IEDB peptide-MHC binding, purified MHC/competitive/fluorescence; filed as Kd, often an IC50 or EC50 that approximates it; bounds were set here for any values at or beyond the usual limits of such assays; settings: source organism: Influenza A virus (A/Gf/HK/SSP607/2003(H9N2))
quantity: Kd

Retrieve Kd measured for `AMITYITRK` and print it.
≥ 20 µM

All figures here come from the Immune Epitope Database (IEDB).
